Below, each of the compounds is paired with its reported viability, T/C value.
# Tested on: NCI-H1876 complex spheroid viability
# test summary: Anticancer human tumor NCI-H1876 cell line growth inhibition [LSD1];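 also: spheroids exposed to compounds for one week before readout; 100% = DMSO vehicle-treated spheroids so lower means fewer viable cells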
# applied conditions: second compound 0.1 µM; first compound 0.3 µM; active compounds read low

compound	viability, T/C (%)
Nc1ccccc1NC(=O)c1ccc(CNC(=O)OCc2cccnc2)cc1 + NC1CCC(NC2CC2c2ccccc2)CC1	21.2
CCc1c2c(nc3ccc(O)cc13)-c1cc3c(c(=O)n1C2)COC(=O)[C@]3(O)CC + NC1CC1c1ccc(-c2cccc(O)c2)cc1	0.31
O=C(C=Cc1cccc(S(=O)(=O)Nc2ccccc2)c1)NO + NC1CC1c1ccc(-c2cccc(O)c2)cc1	16.3
NS(=O)(=O)OCC1CC(n2ccc3c(NC4CCc5ccccc54)ncnc32)CC1O (stereo not drawn) + NC1CCC(NC2CC2c2ccccc2)CC1	36.6
Nc1ncn(C2CC(O)C(CO)S2)c(=O)n1 (stereo not drawn) + NC1CCC(NC2CC2c2ccccc2)CC1	70.7
Nc1ncn(C2CC(O)C(CO)S2)c(=O)n1 (stereo not drawn) + NC1CC1c1ccc(-c2cccc(O)c2)cc1	51.3
CCc1c2c(nc3ccc(O)cc13)-c1cc3c(c(=O)n1C2)COC(=O)[C@]3(O)CC + NC1CCC(NC2CC2c2ccccc2)CC1	0.51
CCN(c1cc(-c2ccc(CN3CCOCC3)cc2)cc(C(=O)NCc2c(C)cc(C)[nH]c2=O)c1C)C1CCOCC1 + NC1CCC(NC2CC2c2ccccc2)CC1	93.8

Entry source: PubChem BioAssay AID1918957
